// provenance: ChEMBL document CHEMBL1201862

System: SNB-75
protocol summary: NCI tumour cell line growth inhibition, 48 h
Active and inactive are the calls of the source. Cut-off read from the data, not from the text of the source: active = GI50 up to about 1.1 µM and inactive = higher.
Below, each of the compounds is paired with its reported GI50 value.

Below are worked cases with known answers.
compound | quantity measured | measured result
COc1cc(C2c3cc4c(cc3[C@@H](N(C)c3ccc(N(C)C)cc3)C3COC(=O)C23)OCO4)cc(OC)c1O (some centres undefined) | GI50 | 4.34 µM (inactive)
Cn1c(C(C)(C)OC(=O)Oc2ccccc2)cnc1[N+](=O)[O-] | GI50 | > 100 µM (inactive)
CC(Cc1ccccc1)Nc1ncnc2c1ncn2C1OC(CO)CC1O (centres undefined) | GI50 | > 100 µM (inactive)
CN1CCN(C(=S)N(C)C(=O)c2ccc(Cl)cc2)CC1 | GI50 | > 100 µM (inactive)
O=C(NN=C1NCCN1)c1ccco1 | GI50 | > 100 µM (inactive)
CCc1c(O)c2c(c(O)c1C(C)=O)C(=O)c1c(cc(O)c(C(=O)O)c1C(=O)O)C2=O | GI50 | > 100 µM (inactive)
CCSC(SCC)=C1C(=O)N(c2ccccc2)N=C1C | GI50 | 20.6 µM (inactive)
NC(=S)NNC(=O)/C(=C/c1ccc(/C=C(\NC(=O)c2ccccc2)C(=O)NNC(N)=S)cc1)NC(=O)c1ccccc1 | GI50 | 30.4 µM (inactive)

Reported GI50 ( COc1cc(O)c2c(=O)cc(C3(O)C=CC(=O)C=C3)oc2c1 ) = 1.22 µM (inactive)

====

Tested on: CCRF-CEM
protocol summary: NCI tumour cell line growth inhibition, 48 h
Active and inactive are the calls of the source. Cut-off read from the data, not from the text of the source: active = GI50 up to about 1.1 µM and inactive = higher.
quantity measured: GI50

compound | GI50
COC(=O)c1ccc2c(c1)sc1nc(-c3ccc(OC)cc3)cn12 | 39.9 µM (inactive)
Cc1c(O)c(OC2OC(CO)C(O)C(O)C2O)cc2c1CC[C@@H]1C2(C)C(=O)C[C@]2(C)[C@@H]([C@@](C)(O)C(=O)CCC(C)(C)O)[C@H](O)C[C@@]12C (some centres not stated) | > 100 µM (inactive)
NC(C/C=C/P(=O)(O)O)C(=O)O (configuration not stated) | > 100 µM (inactive)

Reported GI50 ( Cc1ccc(S(=O)(=O)OC[C@@H]2CO2)cc1 ) = > 100 µM (inactive)

Reported GI50 ( CS(=O)(=O)c1ccc(NNc2cc(=O)[nH]c(=O)[nH]2)cc1 ) = > 100 µM (inactive)

Reported GI50 ( CCCC1C[C@H]2CCCCN2[C@H]2CCCN12 (some centres not stated) ) = > 45.9 µM (inactive)

Reported GI50 ( COc1cc(Br)c(CC2=NCCc3cc(OC)c(OC)cc32)cc1OC ) = 19.7 µM (inactive)

====

Tested on: OVCAR-4
protocol summary: NCI tumour cell line growth inhibition, 48 h
Activity calls are given as the source filed them. No stated cut-off is given here; in the data, active = GI50 up to about 1.1 µM and inactive = higher.
Below, each of the compounds is paired with its reported GI50 value.

Below are worked cases with known answers.
compound | measured result
O=c1c(O)cccn1C1OC(CO)C(O)C1O (stereo not drawn) | > 100 µM (inactive)
O=C(O)CCC1CCc2cccc(O)c2C1=O (stereo not drawn) | > 100 µM (inactive)

Continue with the next compound.
Reported GI50 ( COc1cc(O)c2c(=O)c(OC)c(-c3ccc4c(c3)OCO4)oc2c1OC ) = > 50 µM (inactive)

====

Tested on: OVCAR-4
protocol summary: NCI tumour cell line growth inhibition, 48 h
Activity calls are given as the source filed them. No stated cut-off is given here; in the data, active = GI50 up to about 1.1 µM and inactive = higher.
quantity measured: GI50

compound | GI50
Cn1c(C(C)(C)OC(=O)Oc2ccccc2)cnc1[N+](=O)[O-] | 38.7 µM (inactive)
Cc1ccc2nc3[nH]nc(N)c3nc2c1 | > 100 µM (inactive)
O=[N+]([O-])c1ccc(/C=N/Nc2nc3ccccc3[nH]2)o1 | 8.69 µM (inactive)

Test item COC(=O)C1CC(C=[N+](C)C)=C(SC)N1C(=O)OCc1ccccc1 (stereo not given) ; OVCAR-4; reported GI50 was > 100 µM (inactive)

Test item CC(C)CCC[C@@H](C)C1CCC2[C@@H]3CC=C4C[C@@H](C(=O)NCCN(C)C)CC[C@]4(C)C3CC[C@@]21C (stereo not given in full) ; OVCAR-4; reported GI50 was 30.4 µM (inactive)

====

Tested on: HT-29
protocol summary: NCI tumour cell line growth inhibition, 48 h
Calls of active or inactive are those of the source. Cut-off read from the data, not from the text of the source: active = GI50 up to about 1.1 µM and inactive = higher.
Below, each of the compounds is paired with its reported GI50 value.

Below are worked cases with known answers.
compound | measured result
CC1=C(C(=O)Nc2cc(F)c(F)cc2F)C(c2cccc([N+](=O)[O-])c2)C(C(=O)Nc2ccccc2C(F)(F)F)=C(C)N1 (stereo not given) | 26.7 µM (inactive)
Cc1cc(NS(=O)(=O)c2ccc(NC(NC(=O)OC(C)C)(C(F)(F)F)C(F)(F)F)cc2)nc(C)n1 | > 100 µM (inactive)
CC(C)C(=O)/C=C/c1c(Cl)cccc1Cl | 2.84 µM (inactive)
Cc1cnc(Cl)nc1C(C#N)c1nc2ccccc2s1 (stereo not given) | 29.6 µM (inactive)

Continue with the next compound.
Reported GI50 ( CCCCNC(=O)OCCN=c1c2ccccc2ccc2ccccc12 ) = > 100 µM (inactive)

====

Test system: SNB-19
protocol summary: NCI tumour cell line growth inhibition, 48 h
Activity calls are given as the source filed them. Rule as the data show it: active = GI50 up to about 1.1 µM and inactive = higher.
Classes to choose from: label 1 (active), label 0 (inactive)

Illustrative cases are given below, each with its answer.
compound | class assignment
COc1cccc(CCNc2c(C#N)c3nc4ccccc4n3c3ccccc23)c1 | label 1
Cc1ccnc(NS(=O)(=O)c2ccc(NC3=CC(=O)C(=O)c4ccccc43)cc2)n1 | label 0
CC(C)CCC[C@@H](C)C1CCC2[C@@H]3CC=C4C[C@@H](C(=O)NCCN(C)C)CC[C@]4(C)C3CC[C@@]21C (stereo not given in full) | label 0
COc1cc(O)c2c(=O)cc(C3(O)C=CC(=O)C=C3)oc2c1 | label 0
O=C(Cc1nc2ccc(C(=O)c3ccccc3)cc2nc1O)C(=O)Nc1nc2ccccc2[nH]1 | label 0
COc1ccc(C(CCC(C)=O)C(=O)O)cc1OC (stereo not given) | label 0

Returns: the outcome recorded for C[C@]12CC[C@H]3[C@@H](CC=C4C[C@@H](N5CCCC5)CC[C@@]43C)[C@@H]1C[C@H](N1CCCCC1)[C@@H]2O in this assay.
label 0

Returns: the outcome recorded for Cc1ccc(C)c(NC(=O)NCc2ccc(Cl)cc2)c1 in this assay.
label 0

Returns: the outcome recorded for CS(=O)(=O)Nc1ccc(Nc2c3ccccc3nc3ccccc23)cc1 in this assay.
label 0

Returns: the outcome recorded for CC1(C)C(=O)C(C)(C)C1=NN in this assay.
label 0

====

Test system: SK-OV-3
protocol summary: NCI tumour cell line growth inhibition, 48 h
Calls of active or inactive are those of the source. Cut-off read from the data, not from the text of the source: active = GI50 up to about 1.1 µM and inactive = higher.
Classes to choose from: active, inactive

Illustrative cases are given below, each with its answer.
compound | target under test | class assignment
Brc1ccc2c(-c3nc(-c4c[nH]c5ccccc45)cs3)c[nH]c2c1 | SK-OV-3 | inactive
Clc1cc(Cc2cc(Cl)c(Cl)c3c2OCOC3)c2c(c1Cl)COCO2 | SK-OV-3 | inactive
CS(=O)(=O)c1ccc(NNc2cc(=O)[nH]c(=O)[nH]2)cc1 | SK-OV-3 | inactive

Returns: the outcome recorded for CCCCN(CC)C(=O)C(=O)C1C(=O)Nc2ccccc2[S+]1[O-] (stereo not given) in this assay.
inactive

Returns: the outcome recorded for CC(=O)C1Cn2c(=O)c3cc4ccccc4cc3c(=O)n2C=C1C (stereo not given) in this assay.
inactive

Returns: the outcome recorded for COc1ccc(Oc2nc3cc(C(F)(F)F)ccc3nc2C(C)C)cc1 in this assay.
inactive

Returns: the outcome recorded for CC1=C(CO)C(=O)O[C@@H]([C@@H](CO)[C@H]2CCC3C4C[C@@H](O)[C@@]5(O)CC=CC(=O)[C@]5(C)C4CC[C@@]32C)C1 (stereo not given in full) in this assay.
inactive

Returns: the outcome recorded for CCOC(=O)Oc1cc2ccsc2c2c1c1ccccc1n2C(=O)OCC in this assay.
inactive

Returns: the outcome recorded for COc1cc(/C=C\c2nnc(/C=C\c3ccc(O)c(OC)c3)s2)ccc1O in this assay.
inactive

Returns: the outcome recorded for NC(=S)N/N=C1\C(=O)C=C(Nc2ccc(Cl)cc2Cl)c2ccccc21 in this assay.
inactive

====

Below, each of the molecules is paired with its reported GI50 value.
Test system: RPMI-8226
protocol summary: NCI tumour cell line growth inhibition, 48 h
Active and inactive are the calls of the source. No stated cut-off is given here; in the data, active = GI50 up to about 1.1 µM and inactive = higher.

Below are worked cases with known answers.
molecule | quantity measured | measured result
CCc1c(O)c2c(c(O)c1C(C)=O)C(=O)c1c(cc(O)c(C(=O)O)c1C(=O)O)C2=O | GI50 | > 100 µM (inactive)
CC(C)C(=O)/C=C/c1ccc(Cl)cc1 | GI50 | 5.37 µM (inactive)
Nc1nc(O)c2ncn(C3C=CC(CO)O3)c2n1 (stereo unspecified) | GI50 | > 100 µM (inactive)
O=C(Nc1ccc(C(F)(F)F)cc1[N+](=O)[O-])C(=O)C(C(=O)c1ccc2ccccc2c1)C1OC(=O)c2ccccc21 (stereo unspecified) | GI50 | 4.11 µM (inactive)
COc1ccc(CNc2cc(OC)cc(OC)c2)cc1 | GI50 | > 49.7 µM (inactive)

Reported GI50 ( Cc1cc(N(CCC#N)CCC#N)ccc1C(/N=N\c1ccc([N+](=O)[O-])cc1)=N\NC(=O)c1cc(Cl)ccc1O ) = > 100 µM (inactive)

Reported GI50 ( COc1cc(-c2cc(OC)c(OC)c3ccc(Br)cc23)c2cc(Br)ccc2c1OC ) = 21.4 µM (inactive)

Reported GI50 ( CN(C)CCCOCCn1c2c(c3ccccc31)CCCC2 ) = 15.9 µM (inactive)
